system: VEGF-stimulated ADSC/ECFC co-culture, nuclear area imaging; assay: nuclear area loss in endothelial-stromal co-culture, dose response, cell-based, VEGF stimulation, IC50 (AID 1117324)
Activity calls are given as the source filed them. No rule for the calls is given here.
Result category, one only: 1 = active, -1 = inactive

The examples below pair each entry with its known result.
COMPOUND	ASSIGNED_LABEL
Oc1ccc2[nH]cc(CCCCN3CC=C(c4ccccc4)CC3)c2c1	-1
CCN(CC)C(=O)c1cccnc1	-1

Q: # outcome recorded in this test, key = C=CCCCCCCCCC(=O)OC
Ans: -1

Q: Also need O=c1c(-c2ccccc2)c1-c1ccccc1 , thanks.
Ans: -1

Q: Now this one: CO[C@@]12[C@H](COC(N)=O)C3=C(C(=O)C(C)=C(N)C3=O)N1C[C@@H]1N[C@@H]12
Ans: -1

Q: Here is the next compound: O=C1C(=O)c2ccccc2C(O)=C1C1CCC(c2ccc(Cl)cc2)CC1 (stereo not drawn)
Ans: -1

Q: What would you report for Clc1ccc(CSC(Cn2ccnc2)c2ccc(Cl)cc2Cl)cc1 (stereo not drawn) ?
Ans: -1

Q: Also CN1CCN(CCCN2c3ccccc3Sc3ccc(C(F)(F)F)cc32)CC1 , if possible.
Ans: -1

Q: O=C1NC2CCCCN2C12CCN(CCCN1c3ccccc3CCc3ccc(Cl)cc31)CC2 (stereo not drawn) ?
Ans: -1

Q: Here is the next compound: CCC1=C[C@@H]2CN(C1)Cc1c([nH]c3ccccc13)[C@@](C(=O)OC)(c1cc3c(cc1OC)N(C)[C@H]1[C@@](O)(C(=O)OC)[C@H](OC(C)=O)[C@]4(CC)C=CCN5CC[C@]31[C@@H]54)C2
Ans: -1

Q: Same question for CC(=O)Oc1cccc2c1C(=O)c1c(OC(C)=O)cc(C(=O)O)cc1C2=O please.
Ans: -1

Q: Now the compound O=C(O)CCCc1ccc(N(CCCl)CCCl)cc1
Ans: -1

Q: Try the compound NC1=NCC2c3ccccc3Cc3ccccc3N12 (stereo not drawn)
Ans: -1

Q: Thanks! And CCCCC(CC)COC(=O)C(C#N)=C(c1ccccc1)c1ccccc1 (stereo not drawn) ?
Ans: 1

Q: Next compound up: CC1=C(C(=O)OC(C)C)C(c2cccc([N+](=O)[O-])c2)C(C(=O)OC2CN(C(c3ccccc3)c3ccccc3)C2)=C(N)N1 (stereo not drawn)
Ans: -1

====

tested on: VEGF-stimulated ADSC/ECFC co-culture, nuclear area imaging; assay: nuclear area loss in endothelial-stromal co-culture, dose response, cell-based, VEGF stimulation, IC50 (AID 1117324)
Activity calls are given as the source filed them. No rule for the calls is given here. Where a SMILES comes first, the peptide text is derived from it. Bridges are numbered along the chain shown (N, C = ends). [ ]: non-standard residue; d: D form. hArg = N=C(N)NCCCC[C@H](N)C(=O)O; Mpa = O=C(O)CCS
# IC50 per record follows

MOLECULE	IC50
Cc1c(N)cccc1C(F)(F)F	> 10 µM (inactive)
NC(=O)[C@@H]1CSSCCC(=O)N[C@@H](CCCCN=C(N)N)C(=O)NCC(=O)N[C@@H](CC(=O)O)C(=O)N[C@@H](Cc2c[nH]c3ccccc23)C(=O)N2CCC[C@H]2C(=O)N1 ([Mpa][hArg]GDWPC-NH2; disulfide 1-7)	> 10 µM (inactive)
CCOC(=O)[C@H](CCc1ccccc1)N[C@@H](C)C(=O)N1Cc2cc(OC)c(OC)cc2C[C@H]1C(=O)O	> 10 µM (inactive)

Q: // IC50 lookup, key: CC[C@]1(O)C[C@@H]2CN(CCc3c([nH]c4ccccc34)[C@@](C(=O)OC)(c3cc4c(cc3OC)N(C)[C@H]3[C@@](O)(C(=O)OC)[C@H](OC(C)=O)[C@]5(CC)C=CCN6CC[C@]43[C@@H]65)C2)C1
Ans: > 10 µM (inactive)

Q: Thanks! And CC(=O)c1ccc(OCC(=O)N2CCCCC2)cc1 ?
Ans: > 10 µM (inactive)

====

test system: VEGF-stimulated ADSC/ECFC co-culture, nuclear area imaging; assay: nuclear area loss in endothelial-stromal co-culture, dose response, cell-based, VEGF stimulation, IC50 (AID 1117324)
The source made the active and inactive calls. How the calls were made is not given here.
Listing of entries alongside the reported IC50.

Take a look at these entries with their results.
> print(dat)
                                   molecule                       experimental.system  observed.measurement
1         CCCCCCCCCCCCCC[N+](C)(C)Cc1ccccc1  VEGF-stimulated ADSC/ECFC co-culture, nuclear area imaging    8.36 µM (inactive)
2  CCCCCCCCOc1ccccc1C(=O)Nc1ccc(C(=O)OCC[N+](C)(CC)CC)cc1  VEGF-stimulated ADSC/ECFC co-culture, nuclear area imaging    8.47 µM (inactive)
3  CCCCCCCCCCCCCCCC[N+](C)(C)CCN(Cc1ccc(OC)cc1)c1ncccn1  VEGF-stimulated ADSC/ECFC co-culture, nuclear area imaging    > 10 µM (inactive)
4                       Cc1cc(O)c2ccccc2c1O  VEGF-stimulated ADSC/ECFC co-culture, nuclear area imaging    9.85 µM (inactive)
5  COc1cc2c(c(OC)c1OC)-c1ccc(OC)c(=O)cc1[C@@H](NC(C)=O)CC2  VEGF-stimulated ADSC/ECFC co-culture, nuclear area imaging    > 10 µM (inactive)

Q: Item under review: CN(C)/N=N/c1nc[nH]c1C(N)=O . Reported IC50?
Ans: > 10 µM (inactive)

Q: What do you have for CCC(C(=O)OCCOCCN(CC)CC)c1ccccc1 (stereo unspecified) ?
Ans: > 10 µM (inactive)

Q: Entry to check: O=C(NOCC1CC1)c1ccc(F)c(F)c1Nc1ccc(I)cc1Cl
Ans: > 10 µM (inactive)

Q: Try this molecule too: CCc1c2c(nc3ccc(OC(=O)N4CCC(N5CCCCC5)CC4)cc13)-c1cc3c(c(=O)n1C2)COC(=O)[C@]3(O)CC
Ans: 8.12 µM (inactive)

Q: What do we get for O=c1[nH]sc2cc(Cl)ccc12 ?
Ans: 9.43 µM (inactive)

Q: Further, for O=C1CC[C@H](C(=O)N2CCCCC2)N1 ?
Ans: > 10 µM (inactive)

====

test system: VEGF-stimulated ADSC/ECFC co-culture, nuclear area imaging; test: nuclear area loss in endothelial-stromal co-culture, dose response, cell-based, VEGF stimulation, IC50 (AID 1117324)
Calls of active or inactive are those of the source. The rule behind the calls is not given here.
Hi! Could you answer with just one of these? active, inactive

COMPOUND	ASSIGNED_LABEL
COc1cc(-c2ccc(=O)[nH]n2)ccc1OC(F)F	inactive
CCCOc1ccc2nc(NC(=O)OC)[nH]c2c1	inactive
COC(=O)Nc1nc2ccc(S(=O)c3ccccc3)cc2[nH]1 (stereo not given)	inactive
COC(=O)Nc1nc2ccc(C(=O)C3CC3)cc2[nH]1	inactive
CCCCC(=O)O[C@H]1CC[C@H]2[C@@H]3CCc4cc(O)ccc4[C@@H]3CC[C@]12C	inactive

Q: Please state the recorded outcome for this compound: O=C(O)C1(C(=O)O)CCC1.[NH2-].[NH2-].[Pt+2]
Ans: inactive

Q: And the next one, C#C[C@]1(O)CC[C@H]2[C@@H]3CCc4cc(O)ccc4[C@H]3CC[C@@]21C ?
Ans: inactive

Q: Ok, now O=C(c1ccc(F)cc1)C1CCN(CCn2c(=O)[nH]c3ccccc3c2=O)CC1
Ans: inactive

Q: CC(C)=CCCC(C)=CCCC(C)=CCCC=C(C)CCC=C(C)CCC=C(C)C , same question.
Ans: inactive

Q: Would you mind doing CC[C@@]1(O)C(=O)OCc2c1cc1n(c2=O)Cc2cc3c(CN(C)C)c(O)ccc3nc2-1 as well?
Ans: active

Q: What do we get for Clc1ccc(COC(Cn2ccnc2)c2ccc(Cl)cc2Cl)cc1 (stereo not given) ?
Ans: inactive

====

test system: VEGF-stimulated ADSC/ECFC co-culture, nuclear area imaging; assay: nuclear area loss in endothelial-stromal co-culture, dose response, cell-based, VEGF stimulation, IC50 (AID 1117324)
Calls of active or inactive are those of the source. No rule for the calls is given here.
QUANTITY: IC50

Example molecules with recorded IC50:
> print(dat)
                                   molecule  observed.measurement
1  CCN(CC)CCNC(=O)c1c(C)[nH]c(/C=C2\C(=O)Nc3ccc(F)cc32)c1C    > 10 µM (inactive)
2                              Oc1ccc(O)cc1    > 10 µM (inactive)
3  O[C@@H](c1cc(C(F)(F)F)nc2c(C(F)(F)F)cccc12)[C@H]1CCCCN1    8.61 µM (inactive)

Q: # IC50 lookup, item O=C(NC1CCN(CCc2c[nH]c3ccccc23)CC1)c1ccccc1
Ans: > 10 µM (inactive)

Q: What do we get for c1ccc2c(c1)Sc1ccccc1N2CC1CN2CCC1CC2 (stereo unspecified) ?
Ans: > 10 µM (inactive)

Q: // same read-out, input: CCCCCCCCCCCCCCCC[N+](C)(C)CC
Ans: 7.58 µM (inactive)

Q: // repeat for O=[N+]([O-])c1cccc(S(=O)(=O)NCCNS(=O)(=O)c2cccc([N+](=O)[O-])c2)c1 and report
Ans: > 10 µM (inactive)

Q: And then CC(C)Cn1cnc2c1c(=O)n(C)c(=O)n2C , what is it?
Ans: > 10 µM (inactive)

Q: Ok, now O=C1OC(OC(=O)c2cccnc2Nc2cccc(C(F)(F)F)c2)c2ccccc21 (stereo unspecified)
Ans: > 10 µM (inactive)

Q: Same again, this time with CC12CCC(CC1)C(C)(C)O2
Ans: > 10 µM (inactive)

Q: Another molecule: CCCCCCCCCCCCCCCCCCOP(=O)([O-])OC1CC[N+](C)(C)CC1
Ans: > 10 µM (inactive)
